Data provenance is PubChem BioAssay (Tox21).

- ASSAY OVERVIEW: qHTS assay to identify small molecule antagonists of the estrogen related receptor (ERR) signaling pathway from Tox21 library (AID 1224848); note: nearly all actives have a fitted effect of over 50% in size
- TEST CONTEXT: ERR reporter cell line, luciferase antagonist mode, 18 h; series mostly up to 92.4 µM
- From the text: U.S. Tox21 Program National Center for Advancing Translational Sciences [NCATS] NIH Chemical Genomics Center [NCGC] U.S. Environmental Protection Agency [EPA] National Institutes of Environmental Health Sciences [NIEHS] National Toxicology Program [NTP] U.S. Food and Drug Administration [FDA] Tox21 Assay Overview: Estrogen related receptors (ERRs), the first orphan nuclear receptors discovered, play an important role in the control of cellular energy metabolism. […]
Results filed as inconclusive are left out. Activity calls are given as the source filed them. Calls come from the whole dose curve; as a rule, active = well fitted inhibition curve with a large enough effect in the repeat runs; inconclusive = weak or mixed curves; inactive = no such curve, though single readings can be large or run the other way.
Outcomes: active, inactive

>  <COMPOUND>
CC(C)OCC1CO1 (stereo unspecified)

>  <LABEL CLASS>
inactive

$$$$
>  <COMPOUND>
O=C1NCCN1

>  <LABEL CLASS>
inactive

$$$$
>  <COMPOUND>
Cc1ccc(Nc2nccc(N(C)c3ccc4c(C)n(C)nc4c3)n2)cc1S(N)(=O)=O

>  <LABEL CLASS>
active

$$$$
>  <COMPOUND>
O=C(C(=O)c1ccccc1)c1ccccc1

>  <LABEL CLASS>
inactive

$$$$
>  <COMPOUND>
COc1cc2c(cc1OC)-c1cc(=Nc3c(C)cc(C)cc3C)n(C)c(=O)n1CC2

>  <LABEL CLASS>
active

$$$$
>  <COMPOUND>
Cc1cc2nc3ccc(=[N+](C)C)cc-3sc2cc1N

>  <LABEL CLASS>
active

$$$$

====

- TARGET OF ASSAY: Cytochrome P450 2C19 (Homo sapiens)
- ASSAY OVERVIEW: Cytochrome P450 Family 2 Subfamily C Member 19 (CYP2C19) small molecule antagonists: luciferase reporter qHTS assay (AID 1671197); note: nearly all actives have a fitted effect of over 65% in size
- TEST CONTEXT: P450-Glo CYP2C19 enzyme, luciferin luminescence, 1 h; series mostly up to 115 µM
- From the text: National Center for Advancing Translational Sciences [NCATS] U.S. Environmental Protection Agency [EPA] National Institutes of Environmental Health Sciences [NIEHS] National Toxicology Program [NTP] U.S. Food and Drug Administration [FDA] Cytochrome P450 (CYP) enzymes are membrane-bound hemeproteins that play a key role in metabolism of drugs and xenobiotics. […] The luciferin products formed are detected with a luciferin detection reagent, and the amount of light produced is proportional to CYP activity. […]
Inconclusive results are not listed. Activity calls are given as the source filed them. Calls come from the whole dose curve; as a rule, active = well fitted inhibition curve with a large enough effect in the repeat runs; inconclusive = weak or mixed curves; inactive = no such curve, though single readings can be large or run the other way.
Outcomes: yes (1) (active), no (0) (inactive)

>  <MOL SMILES>
Cc1nc2ccccn2c(=O)c1CCN1CCC(C(=O)c2ccc(F)cc2)CC1

>  <TARGET OF ASSAY>
Cytochrome P450 2C19 (Homo sapiens)

>  <LABEL CLASS>
no (0)

$$$$
>  <MOL SMILES>
C[N+](C)(C)CCOC(N)=O

>  <TARGET OF ASSAY>
Cytochrome P450 2C19 (Homo sapiens)

>  <LABEL CLASS>
no (0)

$$$$
>  <MOL SMILES>
Nc1ccc(Cl)cc1[N+](=O)[O-]

>  <TARGET OF ASSAY>
Cytochrome P450 2C19 (Homo sapiens)

>  <LABEL CLASS>
no (0)

$$$$
>  <MOL SMILES>
CCOCCn1c(C2CCN(CCc3ccc(C(C)(C)C(=O)O)cc3)CC2)nc2ccccc21

>  <TARGET OF ASSAY>
Cytochrome P450 2C19 (Homo sapiens)

>  <LABEL CLASS>
no (0)

$$$$
>  <MOL SMILES>
CN1Cc2cc(C(=O)N3CCC(C4CCNCC4)CC3)ccc2N[C@@H](CC(=O)O)C1=O

>  <TARGET OF ASSAY>
Cytochrome P450 2C19 (Homo sapiens)

>  <LABEL CLASS>
no (0)

$$$$
>  <MOL SMILES>
Cc1cc(O)c2c(O)c3c(O)cccc3cc2c1

>  <TARGET OF ASSAY>
Cytochrome P450 2C19 (Homo sapiens)

>  <LABEL CLASS>
yes (1)

$$$$
>  <MOL SMILES>
CCCCCCCCCOC(C)=O

>  <TARGET OF ASSAY>
Cytochrome P450 2C19 (Homo sapiens)

>  <LABEL CLASS>
no (0)

$$$$
>  <MOL SMILES>
COC(=O)c1cc(S(N)(=O)=O)ccc1OC

>  <TARGET OF ASSAY>
Cytochrome P450 2C19 (Homo sapiens)

>  <LABEL CLASS>
no (0)

$$$$
>  <MOL SMILES>
CCCOC(=O)c1ccc(C(=O)OCCC)nc1

>  <TARGET OF ASSAY>
Cytochrome P450 2C19 (Homo sapiens)

>  <LABEL CLASS>
yes (1)

$$$$
>  <MOL SMILES>
CCCCCCCCCCCC[N+](C)(C)CCCS(=O)(=O)[O-]

>  <TARGET OF ASSAY>
Cytochrome P450 2C19 (Homo sapiens)

>  <LABEL CLASS>
no (0)

$$$$
